Target: UniProt:O00408
Test: PDE selectivity IMAP FP assay, human PDE2A1
Type: biochemical
Settings: Human PDE2; Lab B; read-out: Human PDE2 Ki (nM) Lab B
Observed property: Ki (nM)

Use the examples below as a reference point.
Compound: CN(C)c1nc2c(c(CO)nn2C(c2ccc(C(F)F)c(F)c2)C2CC2)c(=O)[nH]1 (single isomer, unassigned) [Example 153]
Unit of measure: nM
Measurement: 3
--
Compound: CCC(c1ccc(C(F)(F)F)c(F)c1)n1nc(CO)c2c(=O)[nH]c(N(C)C)nc21 (single isomer, unassigned) [Example 144]
Unit of measure: nM
Measurement: 1.7

(P) CC(c1ccc(OC(F)(F)F)c(F)c1)n1nc(CF)c2c(=O)[nH]c(N(C)C)nc21 (single isomer, unassigned) [Example 166]
(Q) CC(C)(C)C(c1ccc(C(F)(F)F)cc1)n1nc(C(F)(F)F)c2c(=O)[nH]c(O)nc21 (single isomer, unassigned) [Example 337]
(R) CC(C)c1ccc(C(C2CC2)n2nc(CO)c3c(=O)[nH]c(N(C)C)nc32)cc1 (single isomer, unassigned) [Example 76]
(S) CCC(c1ccc(C(C)(F)F)cc1F)n1nc(CO)c2c(=O)[nH]c(N(C)C)nc21 (single isomer, unassigned) [Example 110]
(T) O=c1[nH]c(O)nc2c1c(C(F)(F)F)nn2C(c1ccc(C(F)(F)F)cc1)C1CC1 (single isomer, unassigned) [Example 335]
Arrange these 5 compounds in increasing order of Ki. When ranking, write the labels in the order the request describes.
R, P, S, T, Q

====

Biological target: human PDE2A1 (Homo sapiens (Human))
Sequence (O00408 other isoform, or with tags, fused parts or gaps): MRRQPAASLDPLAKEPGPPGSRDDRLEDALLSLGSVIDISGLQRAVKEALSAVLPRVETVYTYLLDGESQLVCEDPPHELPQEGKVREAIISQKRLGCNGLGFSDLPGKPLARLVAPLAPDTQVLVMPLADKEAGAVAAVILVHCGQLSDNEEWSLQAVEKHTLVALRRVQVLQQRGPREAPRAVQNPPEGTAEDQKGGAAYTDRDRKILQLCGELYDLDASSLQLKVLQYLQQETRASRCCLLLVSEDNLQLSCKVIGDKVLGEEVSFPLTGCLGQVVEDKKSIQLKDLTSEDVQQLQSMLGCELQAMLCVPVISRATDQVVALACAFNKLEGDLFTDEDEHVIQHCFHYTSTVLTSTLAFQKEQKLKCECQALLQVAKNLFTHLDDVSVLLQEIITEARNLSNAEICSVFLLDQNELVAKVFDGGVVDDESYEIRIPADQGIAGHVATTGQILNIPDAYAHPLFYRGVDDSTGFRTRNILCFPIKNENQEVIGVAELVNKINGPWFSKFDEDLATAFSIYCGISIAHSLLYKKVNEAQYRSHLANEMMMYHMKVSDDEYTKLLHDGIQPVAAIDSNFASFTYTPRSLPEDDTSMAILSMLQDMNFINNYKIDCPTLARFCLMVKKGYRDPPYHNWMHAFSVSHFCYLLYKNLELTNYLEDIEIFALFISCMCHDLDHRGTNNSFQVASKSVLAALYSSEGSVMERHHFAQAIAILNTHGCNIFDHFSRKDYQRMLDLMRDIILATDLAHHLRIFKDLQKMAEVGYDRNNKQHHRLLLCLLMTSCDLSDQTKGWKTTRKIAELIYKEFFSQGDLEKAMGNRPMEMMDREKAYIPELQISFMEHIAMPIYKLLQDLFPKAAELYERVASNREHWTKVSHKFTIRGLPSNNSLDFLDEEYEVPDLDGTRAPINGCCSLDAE
Assay: PDE selectivity IMAP FP assay, human PDE2A1
Format: biochemical
Conditions: Human PDE2; Lab B; read-out: Human PDE2 Ki (nM) Lab B
Observed property: Ki (nM)

Compound: CCOc1nc2c(c(CO)nn2[C@@H](C)c2ccc(C(F)(F)F)cc2)c(=O)[nH]1
Measurement: 3.7

Compound: CC(c1ccc(OC(F)(F)F)cc1)n1nc(CF)c2c(=O)[nH]c(N(C)C)nc21 (single isomer, unassigned) [Example 165]
Measurement: 0.33

Compound: CC(C)C(c1ccc(C(F)(F)F)c(F)c1)n1nc(CO)c2c(=O)[nH]c(N(C)C)nc21 (single isomer, unassigned) [Example 143]
Measurement: 0.068

(a) CN(C)c1nc2c(c(CF)nn2C(c2ccc(OC(F)F)c(F)c2)C2CC2)c(=O)[nH]1 (single isomer, unassigned) [Example 188]
(b) CCC(c1ccc(OC(F)F)cc1F)n1nc(CF)c2c(=O)[nH]c(N(C)C)nc21 (single isomer, unassigned) [Example 343]
Please compare: a and b . Report which one has the smaller Ki value. // output: label of the selected item
a
(a: 0.35 nM, b: 1.7 nM)

====

Target: human PDE2A1 (Homo sapiens (Human))
Test: PDE selectivity IMAP FP assay, human PDE2A1
Assay type: biochemical
Details: Human PDE2; Lab B; read-out: Human PDE2 Ki (nM) Lab B
Observed property: Ki (nM)

Compound: CC(c1ccc(OC(F)(F)F)c(F)c1)n1nc(CC#N)c2c(=O)[nH]c(O)nc21 (single isomer, unassigned)
Ki / nM: 17
--
Compound: CC(c1ccc(C(C)(F)F)cc1)n1nc(CO)c2c(=O)[nH]c(N(C)C)nc21 (single isomer, unassigned) [Example 103]
Ki / nM: 0.28
--
Compound: O=c1[nH]c(O)nc2c1c(C(F)(F)F)nn2C(c1ccc(C(F)(F)F)cc1)C1CC1 (single isomer, unassigned) [Example 336]
Ki / nM: 3.2

(P) C[C@@H](c1ccc(C(F)(F)F)cc1)n1nc(C(F)(F)F)c2c(=O)[nH]c(N(C)C)nc21
(Q) CC(C)C(c1ccc(C(C)(F)F)cc1)n1nc(CO)c2c(=O)[nH]c(N)nc21 (single isomer, unassigned) [Example 356]
Please compare: P and Q . Report which one has the smaller Ki value. // output: label of the selected item
Q
